Provenance of the data: patent US11331299B2

- test-target: receptors (Bioprint panel)
- procedure-text: biochemical
- Type: binding
- stated-conditions: GABA GABAB(1b) (h) (antagonist radioligand); read-out: Reference Compound IC50
measured-property: IC50 (nM)
Expressed in nM, but write only the number.

The recorded IC50 for entry `C[C@H](NC[C@H](O)CP(=O)(O)CC1CCCCC1)c1ccc(Cl)c(Cl)c1` equals 2.2

----------
Would you kindly list EC50 for each of these compounds?
- System: 280 human cancer cell lines
- procedure-text: OncoPanel cell proliferation assay (10-day)
- Type: cell-based
- stated-conditions: Homo sapiens, 786-0, 786-O, Kidney; read-out: Cell Count EC50
Form field: result (number plus unit)

The recorded EC50 for entry CC(C)=CCC[C@@H]1C(O)Oc2c(C)cc(O)c3c2[C@H]1CC[C@H]3C (stereo partly drawn) equals 27.9 µM

The recorded EC50 for entry CC(C)=CCC[C@H](CO)[C@@H]1CC[C@@H](C)c2c1cc(C)c(O)c2O [Compound 1, 7,8,18-trihydroxyserrulat-14-ene] equals 2.05 µM

The recorded EC50 for entry CC(C)=CCC[C@H](C)[C@@H]1CC[C@@H](C)c2c1cc(C)c(O)c2O [Compound 4, 7,8-dihydroxyserrulat-14-ene] equals 14 µM

----------
Would you kindly list pEC50 for each of these compounds?
- System: 280 human cancer cell lines
- procedure-text: OncoPanel cell proliferation assay (10-day)
- Format: cell-based
- stated-conditions: Homo sapiens, HCT-15, HCT-15, Colon; read-out: Cell Count EC50
Reminder that pEC50 means the negative base-10 logarithm of the concentration expressed in mol/L.

The recorded pEC50 for entry CC(C)=CCC[C@H](CO)[C@@H]1CC[C@@H](C)c2c1cc(C)c(O)c2O [Compound 1, 7,8,18-trihydroxyserrulat-14-ene] equals 5.74

The recorded pEC50 for entry CC(C)=CCC[C@@H]1C(O)Oc2c(C)cc(O)c3c2[C@H]1CC[C@H]3C (stereo partly drawn) equals 5.06

The recorded pEC50 for entry CC(C)=CCC[C@H](C)[C@@H]1CC[C@@H](C)c2c1cc(C)c(O)c2O [Compound 4, 7,8-dihydroxyserrulat-14-ene] equals 4.87

----------
Would you kindly list pIC50 for each of these compounds?
- System: 280 human cancer cell lines
- procedure-text: OncoPanel cell proliferation assay (10-day)
- Format: cell-based
- stated-conditions: Homo sapiens, K562, K562, Leukemia; read-out: Cell Count IC50
Reminder that pIC50 means the negative base-10 logarithm of the concentration expressed in mol/L.

The recorded pIC50 for entry CC(C)=CCC[C@H](CO)[C@@H]1CC[C@@H](C)c2c1cc(C)c(O)c2O [Compound 1, 7,8,18-trihydroxyserrulat-14-ene] equals 5.34

The recorded pIC50 for entry CC(C)=CCC[C@H](C)[C@@H]1CC[C@@H](C)c2c1cc(C)c(O)c2O [Compound 4, 7,8-dihydroxyserrulat-14-ene] equals 4.91

The recorded pIC50 for entry CC(C)=CCC[C@@H]1C(O)Oc2c(C)cc(O)c3c2[C@H]1CC[C@H]3C (stereo partly drawn) equals 4.99

----------
- Test system: 280 human cancer cell lines
- procedure-text: OncoPanel cell proliferation assay (10-day)
- Type: cell-based
- stated-conditions: Homo sapiens, COR-L105, COR-L105, Lung - NSCLC; read-out: Cell Count EC50
Would you kindly list pEC50 for each of these compounds?
Reminder that pEC50 means the negative base-10 logarithm of the concentration expressed in mol/L.

Record CC(C)=CCC[C@@H]1C(O)Oc2c(C)cc(O)c3c2[C@H]1CC[C@H]3C (stereo partly drawn) / 280 human cancer cell lines, pEC50 recorded as 5.32

Record CC(C)=CCC[C@H](C)[C@@H]1CC[C@@H](C)c2c1cc(C)c(O)c2O [Compound 4, 7,8-dihydroxyserrulat-14-ene] / 280 human cancer cell lines, pEC50 recorded as 5.06

Record CC(C)=CCC[C@H](CO)[C@@H]1CC[C@@H](C)c2c1cc(C)c(O)c2O [Compound 1, 7,8,18-trihydroxyserrulat-14-ene] / 280 human cancer cell lines, pEC50 recorded as 5.84

----------
- test-target: CYP2B6 (Homo sapiens, UniProt P20813)
- Sequence (P20813 whole entry): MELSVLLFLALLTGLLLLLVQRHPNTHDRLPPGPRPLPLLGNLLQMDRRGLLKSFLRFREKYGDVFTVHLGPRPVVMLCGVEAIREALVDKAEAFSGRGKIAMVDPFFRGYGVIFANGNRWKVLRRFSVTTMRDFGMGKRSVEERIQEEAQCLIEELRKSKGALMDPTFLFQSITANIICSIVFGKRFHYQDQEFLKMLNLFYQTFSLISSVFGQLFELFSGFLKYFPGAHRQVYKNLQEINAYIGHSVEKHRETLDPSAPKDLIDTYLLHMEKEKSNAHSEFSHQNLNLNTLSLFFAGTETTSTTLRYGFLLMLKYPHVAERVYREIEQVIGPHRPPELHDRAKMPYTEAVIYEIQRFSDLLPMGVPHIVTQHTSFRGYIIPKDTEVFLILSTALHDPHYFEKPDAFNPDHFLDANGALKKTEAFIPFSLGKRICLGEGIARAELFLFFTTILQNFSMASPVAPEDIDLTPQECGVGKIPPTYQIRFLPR
- procedure-text: Cytochrome P450 Inhibition (CYP panel)
- stated-conditions: human, liver microsomes, probe bupropion
Would you kindly list inhibition at 1 µM for each of these compounds?
Expressed in %, but write only the number.

The recorded inhibition at 1 µM for entry CC(C)=CCC[C@@H]1C(O)Oc2c(C)cc(O)c3c2[C@H]1CC[C@H]3C (stereo partly drawn) [Compound 2, 5,18-epoxyserrulat-14-en-8,18-diol] equals 15

The recorded inhibition at 1 µM for entry CC(C)=CCC[C@H](C)[C@@H]1CC[C@@H](C)c2c1cc(C)c(O)c2O [Compound 4, 7,8-dihydroxyserrulat-14-ene] equals 16

The recorded inhibition at 1 µM for entry CC(C)=CCC[C@H](CO)[C@@H]1CC[C@@H](C)c2c1cc(C)c(O)c2O [Compound 1, 7,8,18-trihydroxyserrulat-14-ene] equals 13

----------
Would you kindly list EC50 for each of these compounds?
- Tested on: 280 human cancer cell lines
- procedure-text: OncoPanel cell proliferation assay (10-day)
- Assay type: cell-based
- stated-conditions: Homo sapiens, AN3-CA, AN3 CA, Female GU - Uterus; read-out: Cell Count EC50
Expressed in µM, but write only the number.

The recorded EC50 for entry CC(C)=CCC[C@H](C)[C@@H]1CC[C@@H](C)c2c1cc(C)c(O)c2O [Compound 4, 7,8-dihydroxyserrulat-14-ene] equals 9.62

The recorded EC50 for entry CC(C)=CCC[C@@H]1C(O)Oc2c(C)cc(O)c3c2[C@H]1CC[C@H]3C (stereo partly drawn) [Compound 2, 5,18-epoxyserrulat-14-en-8,18-diol] equals 11.3

The recorded EC50 for entry CC(C)=CCC[C@H](CO)[C@@H]1CC[C@@H](C)c2c1cc(C)c(O)c2O [Compound 1, 7,8,18-trihydroxyserrulat-14-ene] equals 1.52

----------
- System: 280 human cancer cell lines
- procedure-text: OncoPanel cell proliferation assay (10-day)
- Assay type: cell-based
- stated-conditions: Homo sapiens, H4, CNS - Glioma; read-out: Cell Count IC50
measured-property: pIC50
Reminder that pIC50 means the negative base-10 logarithm of the concentration expressed in mol/L.

The recorded pIC50 for entry CC(C)=CCC[C@H](C)[C@@H]1CC[C@@H](C)c2c1cc(C)c(O)c2O [Compound 4, 7,8-dihydroxyserrulat-14-ene] equals 4.89

The recorded pIC50 for entry CC(C)=CCC[C@H](CO)[C@@H]1CC[C@@H](C)c2c1cc(C)c(O)c2O [Compound 1, 7,8,18-trihydroxyserrulat-14-ene] equals 5.56

----------
- procedure-text: PBMC cell viability (assay number 1322)
- Assay type: cell-based, human
- stated-conditions: human; read-out: Inhibition of cell viability, Max Effect
measured-property: cytotoxicity at 3 days
Form field: result (number plus unit)

The recorded cytotoxicity at 3 days for entry CC(C)=CCC[C@H](CO)[C@@H]1CC[C@@H](C)c2c1cc(C)c(O)c2O [Compound 1, 7,8,18-trihydroxyserrulat-14-ene] equals 101%

----------
- test-target: MLL3(h) complex (Homo sapiens, UniProt Q8NEZ4)
- procedure-text: Epigenetic enzyme assay, Methyltransferases (MTs)
- Type: biochemical
- stated-conditions: read-out: Reference IC50
measured-property: pIC50
Reminder that pIC50 means the negative base-10 logarithm of the concentration expressed in mol/L.

The recorded pIC50 for entry `Nc1ncnc2c1ncn2[C@@H]1O[C@H](CSCC[C@H](N)C(=O)O)[C@@H](O)[C@H]1O` equals 5.05

----------
- Tested on: 43 cancer cell lines and one normal cell line
- procedure-text: In vitro cell viability assay (intracellular ATP, 72 hour)
- Assay type: cell-based
- stated-conditions: LNCaP (Prostrate Cancer); 10 μM
Would you kindly list % Cell growth for each of these compounds?
Expressed in %, but write only the number.

Record CC(C)=CCC[C@H](C)[C@@H]1CC[C@@H](C)c2c1cc(C)c(O)c2O [Compound 4, 7,8-dihydroxyserrulat-14-ene] / 43 cancer cell lines and one normal cell line, % Cell growth recorded as 56

Record CC(C)=CCC[C@@H]1COc2c(C)cc(O)c3c2[C@H]1CC[C@H]3C [Compound 3, 5,18-epoxy-8-hydroxyserrulat-14-ene] / 43 cancer cell lines and one normal cell line, % Cell growth recorded as 84

Record CC(C)=CCC[C@@H]1C(O)Oc2c(C)cc(O)c3c2[C@H]1CC[C@H]3C (stereo partly shown) [Compound 2, 5,18-epoxyserrulat-14-en-8,18-diol] / 43 cancer cell lines and one normal cell line, % Cell growth recorded as 73

Record CC(C)=CCC[C@H](CO)[C@@H]1CC[C@@H](C)c2c1cc(C)c(O)c2O [Compound 1, 7,8,18-trihydroxyserrulat-14-ene] / 43 cancer cell lines and one normal cell line, % Cell growth recorded as −86

----------
- Test system: 280 human cancer cell lines
- procedure-text: OncoPanel cell proliferation assay (10-day)
- Type: cell-based
- stated-conditions: Homo sapiens, HT-1376, HT1376, Bladder; read-out: Cell Count EC50
Would you kindly list pEC50 for each of these molecules?
Reminder that pEC50 means the negative base-10 logarithm of the concentration expressed in mol/L.

The recorded pEC50 for entry CC(C)=CCC[C@@H]1C(O)Oc2c(C)cc(O)c3c2[C@H]1CC[C@H]3C (stereo partly drawn) equals 5.33

The recorded pEC50 for entry CC(C)=CCC[C@H](C)[C@@H]1CC[C@@H](C)c2c1cc(C)c(O)c2O [Compound 4, 7,8-dihydroxyserrulat-14-ene] equals 4.85

The recorded pEC50 for entry CC(C)=CCC[C@H](CO)[C@@H]1CC[C@@H](C)c2c1cc(C)c(O)c2O [Compound 1, 7,8,18-trihydroxyserrulat-14-ene] equals 5.84
